experimental-details: NCI Yeast Anticancer Drug Screen. Data for the rad50EPP+ strain (AID 151)
measurement-setup: S. cerevisiae rad50 mutant strain, at 3.7 µM
This is part of a sample that, as a whole, favours compounds with a hit. Of some 79,000 tested, about 15% had one in any assay. Calls of active or inactive are those of the source. No stated cut-off is given here; in the data, active means growth inhibition above about 70%; inactive means the rest.
Labels: active, inactive

- O=C1C(=O)c2cccc([N+](=O)[O-])c2-c2ccccc21: inactive
- COc1cc(C(=O)C=O)cc(OC)c1OC: inactive
- O=[N+]([O-])c1cc(Cl)ccc1S(=O)(=O)c1ccc(Cl)cc1[N+](=O)[O-]: inactive
- CS(=O)(=O)O.[Ag]: active
- O=C1NC(c2cccc(OCc3ccccc3)c2)Nc2ccccc21 (stereo unspecified): inactive
- CC1(C)CC(=O)C(/C=N/c2nc(-c3ccc(Br)cc3)cs2)=C(O)C1: inactive
- Cc1cccc2c(Cl)c3cccc(C)c3nc12: inactive
- COc1ccc2cc(C(C)C(=O)N3CCOC3=O)ccc2c1 (stereo unspecified): inactive
- COc1ccc2nc3cccc([N+](=O)[O-])c3c(NCCNCCO)c2c1: inactive
- C/C1=C/C2OC(=O)C3(C)C2C(CC2(C)OC1=CC2=O)OC3(O)C(C)C (stereo unspecified): inactive
- BrC1C2CCC3OC3C12 (stereo unspecified): inactive
- O=C(NCCNCCNC(=O)c1cc(-c2ccccc2)nc2ccccc12)c1cc(-c2ccccc2)nc2ccccc12: inactive
- CCOC(=O)/C(=C\c1ccc(F)cc1)C(C)=O: inactive
- ClCCCOc1c(Cl)cc(Cl)cc1Cl: inactive
- CC1CN(/N=C\c2ccc([N+](=O)[O-])o2)C(=O)O1 (stereo unspecified): inactive
- NC(CS)C(=O)NCCNc1ccc(NCCNC(=O)C(N)CS)c2c1C(=O)c1c(O)ccc(O)c1C2=O (stereo unspecified): inactive
- COC1/C=C\C=C(/C)C(=O)NC2=CC(=O)C(=O)C(=C2O)CC(C)CC(OC)C(O)C(C)/C=C(\C)C1OC(N)=O (stereo unspecified): inactive
- COc1ccc(C2CC(C)(N3CCCC3)Oc3cc4c(cc32)OCO4)cc1 (stereo unspecified): inactive
- N#CCCC1C(C#N)C2(Cl)CC1(Cl)C(Cl)=C2Cl (stereo unspecified): inactive
- O=C(Cc1ccccc1)NNc1nc(NNC(=O)c2ccncc2)nc(Nc2ccc(Cl)cc2)n1: inactive
- COc1ccc2nc(CCc3ccccc3)ccc2c1: inactive
- O=C(NCCCCN(CCCNC(=O)C(F)(F)F)Cc1ccccc1)C(F)(F)F: inactive
- CNC(=O)OCc1c(COC(=O)NC)c(C)n(-c2ccc(Br)cc2)c1C: inactive
- CC(=O)/C=C/c1cccc([N+](=O)[O-])c1: inactive
- O=Cc1ccccc1C=O: inactive
- COc1ccc2cc3c4cc5c(cc4cc[n+]3cc2c1OC)OCO5: inactive
- CCCCCCNCCCNc1c2cc(OC)ccc2nc2cccc([N+](=O)[O-])c12: inactive
- CC(C(=O)N1C(=O)N(C(=O)C(C)C(O)c2ccccc2)C2CCCCC21)C(O)c1ccccc1 (stereo unspecified): inactive
- CC1(C)CC(=O)C(C(=O)Nc2cccs2)=C(O)C1: inactive
- C/C(=N/NC(=S)Nc1ccccc1C)c1ccccn1: inactive
- Nc1ccc(S(=O)(=O)Nc2nc3c(c(=O)[nH]2)CCCC3)cc1: inactive
- CCCCCCCCCCCCOCCOCCOCC(N)=O: inactive
- CCC(C)(C)c1ccc(Oc2ccccc2)c(N)c1: inactive
- O=C(O)c1ccccc1C(=O)OC1CCc2ccccc2C1 (stereo unspecified): inactive
- c1cc(-c2sc(-c3ccncc3)c(-c3ccncc3)c2-c2ccncc2)ccn1: inactive
- OC1(C#CI)CCCCC1: inactive

Every entry's value here was drawn from PubChem BioAssay (NCI).
